From: paper PMC8769072

# system_name: KPNA4 ARM (importin subunit alpha-3, armadillo repeat domain) (human) (UniProt O00629)
# Sequence (O00629 whole entry, the tested form may be a part): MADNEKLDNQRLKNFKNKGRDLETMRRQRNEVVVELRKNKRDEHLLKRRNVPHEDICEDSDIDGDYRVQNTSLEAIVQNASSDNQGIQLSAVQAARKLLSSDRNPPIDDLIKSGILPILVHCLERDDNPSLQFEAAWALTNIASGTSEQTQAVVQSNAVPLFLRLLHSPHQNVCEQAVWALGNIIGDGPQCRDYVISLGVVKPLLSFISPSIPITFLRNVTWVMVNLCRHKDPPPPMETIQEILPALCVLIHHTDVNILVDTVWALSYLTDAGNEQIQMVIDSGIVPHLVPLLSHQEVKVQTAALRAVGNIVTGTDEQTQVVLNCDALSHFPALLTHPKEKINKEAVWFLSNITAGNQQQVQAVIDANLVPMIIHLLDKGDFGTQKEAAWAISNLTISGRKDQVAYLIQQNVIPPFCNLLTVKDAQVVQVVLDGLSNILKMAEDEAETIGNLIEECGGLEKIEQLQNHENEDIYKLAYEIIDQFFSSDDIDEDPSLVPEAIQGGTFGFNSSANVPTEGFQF
# protocol_summary: fluorescence polarisation; competition: unlabelled peptide in serial dilution against KPNA4 ARM (master mix at four times the KD) with the probe FITC-NCOR2(1307-1322), probe of the minor pocket; 50 mM KPO4 pH 7.5; Ki calculated from IC50
pIC50: −log10 of the molar value. Where no end group is shown, it is not given here. [ ]: non-standard residue; d: D form. pY = N[C@@H](Cc1ccc(OP(=O)(O)O)cc1)C(=O)O; pS = N[C@@H](COP(=O)(O)O)C(=O)O
So basically, the class depends on measured pIC50, and the ranges are bottom range (below 5), center range (5 to below 6), top range (6 or more)

{"binder": "Ac-EI[pS]LKRSYESVEGNIK-NH2 (SMILES CC[C@H](C)[C@H](NC(=O)[C@H](CC(N)=O)NC(=O)CNC(=O)[C@H](CCC(=O)O)NC(=O)[C@@H](NC(=O)[C@H](CO)NC(=O)[C@H](CCC(=O)O)NC(=O)[C@H](Cc1ccc(O)cc1)NC(=O)[C@H](CO)NC(=O)[C@H](CCCNC(=N)N)NC(=O)[C@H](CCCCN)NC(=O)[C@H](CC(C)C)NC(=O)[C@H](COP(=O)(O)O)NC(=O)[C@@H](NC(=O)[C@H](CCC(=O)O)NC(C)=O)[C@@H](C)CC)C(C)C)C(=O)N[C@@H](CCCCN)C(N)=O) [NCOR1 1240-1255 peptide, pS1242]", "class": "bottom range"}
{"binder": "GKKRTFDETVSTYVPL-NH2 [TPX2 312-327 peptide]", "class": "top range"}
{"binder": "AGVKRSAAEMYGSVTE-NH2 [HNRNPC 95-110 peptide]", "class": "top range"}
{"binder": "DLKRRLDSITSSQSSA-NH2 [KDR 958-973 peptide]", "class": "bottom range"}
{"binder": "ELKRKLEQEQKLVEVL-NH2 [MKL2 572-587 peptide]", "class": "bottom range"}
{"binder": "DHQFPAKRPRLSEPQG-NH2 [HJURP 675-690 peptide]", "class": "bottom range"}
{"binder": "Ac-EISLKR[pS]YESVEGNIK-NH2 (SMILES CC[C@H](C)[C@H](NC(=O)[C@H](CC(N)=O)NC(=O)CNC(=O)[C@H](CCC(=O)O)NC(=O)[C@@H](NC(=O)[C@H](CO)NC(=O)[C@H](CCC(=O)O)NC(=O)[C@H](Cc1ccc(O)cc1)NC(=O)[C@H](COP(=O)(O)O)NC(=O)[C@H](CCCNC(=N)N)NC(=O)[C@H](CCCCN)NC(=O)[C@H](CC(C)C)NC(=O)[C@H](CO)NC(=O)[C@@H](NC(=O)[C@H](CCC(=O)O)NC(C)=O)[C@@H](C)CC)C(C)C)C(=O)N[C@@H](CCCCN)C(N)=O) [NCOR1 1240-1255 peptide, pS1246]", "class": "bottom range"}
{"binder": "IPEKKQRLEEATTICL-NH2 [AFF2 864-879 peptide]", "class": "bottom range"}
{"binder": "Ac-EISLKRS[pY]ESVEGNIK-NH2 (SMILES CC[C@H](C)[C@H](NC(=O)[C@H](CC(N)=O)NC(=O)CNC(=O)[C@H](CCC(=O)O)NC(=O)[C@@H](NC(=O)[C@H](CO)NC(=O)[C@H](CCC(=O)O)NC(=O)[C@H](Cc1ccc(OP(=O)(O)O)cc1)NC(=O)[C@H](CO)NC(=O)[C@H](CCCNC(=N)N)NC(=O)[C@H](CCCCN)NC(=O)[C@H](CC(C)C)NC(=O)[C@H](CO)NC(=O)[C@@H](NC(=O)[C@H](CCC(=O)O)NC(C)=O)[C@@H](C)CC)C(C)C)C(=O)N[C@@H](CCCCN)C(N)=O) [NCOR1 1240-1255 peptide, pY1247]", "class": "bottom range"}
{"binder": "GVKRTYSEVYPGQQYL-NH2 [ZMIZ2 264-279 peptide]", "class": "top range"}
{"binder": "PFKRPHSTISDSSTSS-NH2 [PLEKHG4B 1183-1198 peptide]", "class": "center range"}
{"binder": "PKRTYDMMEGRVGRAI-NH2 [NCOR2 1307-1322 peptide, unlabelled]", "class": "top range"}
{"binder": "STMKRKHDEIQRSLPV-NH2 [ZBED9 651-666 peptide]", "class": "center range"}
